molecular target: panel of more than 300 wild-type and mutant kinases (313 kinase panel) (Homo sapiens); experiment: Kinase profiling in a biochemical assay panel (mobility shift assays and ELISA), %-inhibition at 1 μM; selectivity entropy; conditions: kinase p70S6K; 1 μM
VALUE_TYPE: %-inhibition of p70S6K (%)
Report the value in % with no unit label.

COMPOUND: Cc1cn(-c2cc(NC(=O)c3ccc(C)c(Nc4nccc(-c5cccnc5)n4)c3)cc(C(F)(F)F)c2)cn1 [nilotinib]
UNITS: %
VALUE: 2
--
COMPOUND: C[C@@H](Oc1cc(-c2cnn(C3CCNCC3)c2)cnc1N)c1c(Cl)ccc(F)c1Cl [crizotinib]
UNITS: %
VALUE: 40
--
COMPOUND: CCN(CC)CCNC(=O)c1c(C)[nH]c(/C=C2\C(=O)Nc3ccc(F)cc32)c1C [sunitinib]
UNITS: %
VALUE: 88
--
COMPOUND: CO[C@H]1C[C@@H]2CC[C@@H](C)[C@@](O)(O2)C(=O)C(=O)N2CCCC[C@H]2C(=O)O[C@H]([C@H](C)C[C@@H]2CC[C@@H](OC(=O)C(C)(CO)CO)[C@H](OC)C2)CC(=O)[C@H](C)/C=C(\C)[C@@H](O)[C@@H](OC)C(=O)[C@H](C)C[C@H](C)/C=C/C=C/C=C/1C [temsirolimus]
UNITS: %
VALUE: -13
--
COMPOUND: CNC(=O)c1cc(Oc2ccc(NC(=O)Nc3ccc(Cl)c(C(F)(F)F)c3)c(F)c2)ccn1 [regorafenib]
UNITS: %
VALUE: 92

Incoming: Name the recorded %-inhibition of p70S6K for CO[C@H]1C[C@@H]2CC[C@@H](C)[C@@](O)(O2)C(=O)C(=O)N2CCCC[C@H]2C(=O)O[C@H]([C@H](C)C[C@@H]2CC[C@@H](OCCO)[C@H](OC)C2)CC(=O)[C@H](C)/C=C(\C)[C@@H](O)[C@@H](OC)C(=O)[C@H](C)C[C@H](C)/C=C/C=C/C=C/1C [everolimus] .
Outgoing: -13
